# TEST SUMMARY: Phase 1 single dose escalation pharmacokinetics
# ASSAY CONTEXT: male, human, plasma, po, 5 mg, AUC0-24, healthy males, single oral 5 mg, mean
REPORTED METRIC: AUC(0-t) (ng·h/mL)
Your answer should be a plain number; it is taken to be in ng·h/mL.

AUC(0-t) for O=S1(=O)c2ccc(F)cc2Oc2cc(OCC(F)(F)F)ccc21 is 21.6

---

# TEST SUMMARY: Phase 1 single dose escalation pharmacokinetics
# ASSAY CONTEXT: male, human, plasma, po, 40 mg
REPORTED METRIC: CL/F (mL/min/kg)
Just the number please, in mL/min/kg, no unit attached.

Given item O=S1(=O)c2ccc(F)cc2Oc2cc(OCC(F)(F)F)ccc21 [CX157] , the value recorded as its CL/F is 29.9

The origin of these recorded values is patent US12263155B2.
